// data source = PubChem BioAssay (NCI)

system: PC-3 prostate; experiment: NCI-60 one-dose screen, 48 h; settings: 10 µM unless noted
The panel holds about 83,000 compounds, 20% with a hit somewhere; the sample as a whole holds those more often. The source made the active and inactive calls. How the source made its calls: active means growth percent below 10; inactive means the rest.
I would appreciate it if you answered using one of these outcomes: TRUE (active), FALSE (inactive)

>  <compound>
Cc1cc2nc3c4cc(N)ccc4n(CCN(C)C)c3nc2cc1C

>  <target or system>
PC-3 prostate

>  <label>
FALSE

$$$$
>  <compound>
O=C1C(=O)c2ccccc2C(O)=C1CCCc1ccc(C2CCCCC2)cc1

>  <target or system>
PC-3 prostate

>  <label>
FALSE

$$$$
>  <compound>
COc1cc2c3c(c4c5ccccc5[nH]c4c2c(OC)c1OC)C(=O)N(O)C3=O

>  <target or system>
PC-3 prostate

>  <label>
FALSE

$$$$
>  <compound>
CC(=O)c1c(C)[nH]c(-c2nc3ccc(N4CCN(C)CC4)cc3[nH]2)c1-c1ccc(N(C)C)cc1

>  <target or system>
PC-3 prostate

>  <label>
FALSE

$$$$
>  <compound>
NC(=O)NCC1CCCCC1

>  <target or system>
PC-3 prostate

>  <label>
FALSE

$$$$

Identify the outcome logged in this assay for the compound shown: `N=C(N)c1ccc(-c2ccc(-c3cc(F)cc(F)c3)o2)nc1`
FALSE

###

tested on: SW-620 colon; test: NCI-60 one-dose screen, 48 h (100 = growth as untreated, 0 = no growth, -100 = all killed); details: 10 µM unless noted
The panel holds about 83,000 compounds, 20% with a hit somewhere; the sample as a whole holds those more often.
readout kind: growth (%)
Answer with a number only, understood to be in %.

>  <compound>
C=C1C(=O)O[C@H]2[C@H]1CC/C(COC(=O)N[C@H](Cc1c[nH]c3ccccc13)C(=O)OC)=C\CC[C@@]1(C)O[C@@H]21

>  <target or system>
SW-620 colon

>  <growth, %>
-1.92

$$$$
>  <compound>
Cc1ccnc2c(OCc3ccccc3)cccc12

>  <target or system>
SW-620 colon

>  <growth, %>
92

$$$$
>  <compound>
CC1c2ccccc2N(S(=O)(=O)c2ccccc2)C1C (centres undefined)

>  <target or system>
SW-620 colon

>  <growth, %>
72.7

$$$$
>  <compound>
Oc1cccc2ccc(N/N=C/c3cc(CN4CCCCC4)c(O)c4ncccc34)nc12

>  <target or system>
SW-620 colon

>  <growth, %>
16

$$$$
>  <compound>
Cc1nn(-c2ccc(Br)cc2)c2nc3[nH]c(=O)[nH]c(=O)c3nc12

>  <target or system>
SW-620 colon

>  <growth, %>
103

$$$$
>  <compound>
Cn1cc(-c2nc(-c3cn(C)c4ncccc34)cs2)c2ccccc21

>  <target or system>
SW-620 colon

>  <growth, %>
27

$$$$

Consider the compound `COC(=O)[C@]12CC[C@@H](C(/C=C/c3cccnc3)=N/O)[C@@H]1[C@H]1CC[C@@H]3[C@@]4(C)CC(=C/c5cccnc5)/C(=N/O)C(C)(C)[C@@H]4CC[C@@]3(C)[C@]1(C)CC2` and give its measured growth.
45.5

Look up growth: c1ccc(C2Cc3ccccc3C2=NC2CCCCC2)cc1 (centres undefined)
119

Given the entry `C/C(=N\Nc1cc(C)c2ccccc2n1)c1ccccn1` , report its measured growth.
7.9

###

test system: MDA-MB-435 melanoma; assay: NCI-60 one-dose screen, 48 h; settings: 10 µM unless noted
The panel holds about 83,000 compounds, 20% with a hit somewhere; the sample as a whole holds those more often. Active and inactive are the calls of the source. How the source made its calls: active means growth percent below 10; inactive means the rest.
Result category, one only: yes (active), no (inactive)

A selection of reference data follows.
>  <compound>
Cn1cc(-c2csc(-c3cn(CCN)c4ccc(F)cc34)n2)c2cccnc21

>  <label>
no

$$$$
>  <compound>
Nc1c(C(=O)Nc2cccc(Cl)c2)sc2ncc(Cl)cc12

>  <label>
no

$$$$
>  <compound>
NC(Cc1ccc(O)cc1)C(=O)N/N=C/c1ccccc1O (centres undefined)

>  <label>
no

$$$$
>  <compound>
COc1cc(-c2cc(-c3nc4cc(Cl)c(Cl)cc4[nH]3)[nH]n2)cc(OC)c1OC

>  <label>
no

$$$$
>  <compound>
N=C(N)c1ccc(-c2ccc(-c3cc(F)cc(F)c3)o2)nc1

>  <label>
no

$$$$
>  <compound>
CC[C@]12C=CCN3CC[C@@]4(c5cc([C@H]6CCC(=O)N6)c(OC)cc5N(C)[C@H]4[C@@](O)(C(=O)OC)[C@@H]1OC(C)=O)[C@@H]32

>  <label>
no

$$$$
>  <compound>
Cc1csc(Nc2nc(-c3cccc(Br)c3)nc(C(Cl)(Cl)Cl)n2)n1

>  <label>
no

$$$$
>  <compound>
Clc1ccccc1-c1nc(Nc2nc3ccccc3s2)nc(C(Cl)(Cl)Cl)n1

>  <label>
no

$$$$

# evaluate next
Kindly provide the recorded test outcome for the following compound: `CCCCCCCC(=O)SCC/C=C/[C@@H]1CC(=O)NCc2cccc(n2)CN(Cc2ccc(Cl)cc2)CC(=O)N[C@@H](C(C)C)C(=O)O1`
yes

###

The molecules listed here are annotated with their growth.
system: HCT-116 colon; assay: NCI-60 one-dose screen, 48 h (100 = growth as untreated, 0 = no growth, -100 = all killed); details: 10 µM unless noted
This is part of a sample that, as a whole, favours compounds with a hit. Of some 83,000 tested, about 20% had one in any assay.
// note: answer is a bare numeric in %

Worked cases, growth given:
>  <compound string>
Cn1cccc1/C=C1/SC(=S)N(CCc2ccc(O)cc2)C1=O

>  <reported measurement>
21.4

$$$$
>  <compound string>
O=C(CCCCCn1c2ccccc2c2c3c(c4c5ccccc5[nH]c4c21)C(=O)N(O)C3=O)N1CCOCC1

>  <reported measurement>
24.3

$$$$
>  <compound string>
CN(C)c1ccc(-c2ccc(-c3ccc(C(=N)N)c(F)c3)s2)cc1

>  <reported measurement>
-89.3

$$$$
>  <compound string>
COc1cc(-c2cc3ncccc3c3nc(N)c4cccnc4c23)cc(OC)c1OC

>  <reported measurement>
9.87

$$$$
>  <compound string>
NCCn1cc(-c2nc(-c3c[nH]c4ncccc34)cs2)c2ccccc21

>  <reported measurement>
94.5

$$$$

Entry `CCN(CC)c1ccc(/C=C/c2cc(C)c3ccccc3n2)cc1` : reported growth = ?
22.8

Recorded growth for `COc1cc(-c2cc(-c3nc4ccc(F)cc4[nH]3)[nH]n2)cc(OC)c1OC` , please?
31.2

Record request: growth value, item `C=C(C)[C@@H]1CC[C@]2(C(=O)NNC(=O)c3cccnc3)CC[C@]3(C)[C@H](CC[C@@H]4[C@@]5(C)CCCNC(C)(C)[C@@H]5CC[C@]43C)[C@@H]12`
45.7

Fill in the blank: the reported growth of `Cn1c(/C(C#N)=C/c2ccc3ccccc3c2)cc2ccccc21` is ____.
8.56

Dear colleague, I am looking for the recorded growth of the following molecule: `C[Si](C)(C)Cc1ccccc1`
107

###

tested on: OVCAR-3 ovarian; experiment: NCI-60 one-dose screen, 48 h; conditions: 10 µM unless noted
About 83,000 compounds went through this panel and 20% of them were active in at least one assay; those are over-represented in the sample as a whole. Activity calls are given as the source filed them. The calls were made as follows: active = growth percent below 10; inactive = the rest.
Tick one outcome: active, inactive

Assay outcome for `Cc1cc(N(CCCNc2ccnc3cc(Cl)ccc23)Cc2ccco2)nc(N2CCN(C)CC2)n1` : what was it?
inactive

How did this test come out for `Cc1ccc2[nH]cc(-c3nc(-c4cn(C)c5ncccc45)cs3)c2c1` ?
inactive

I would be grateful if you could indicate the recorded call for `COc1cc(/C=N/Nc2ncnc3c2c(C)nn3-c2ccc(F)cc2)ccc1O` .
inactive

Called result for `O=S(=O)(NCCNc1cc(-c2cn(-c3ccccc3)nc2-c2cccc(O)c2)ccn1)c1ccc(C(F)(F)F)cc1`
inactive

Give the logged outcome of this assay for the following compound: `Cc1ccc(Sc2sc(-c3ccccc3)nc2[P+](c2ccccc2)(c2ccccc2)c2ccccc2)cc1`
active

Lab log entry: `Cc1cc(C=O)c(C)c2c1[nH]c1ccccc12` — outcome as called in the assay?
inactive

Please let me know the test result on file for `O=C(O)c1cccc2c1-c1ccc(Cl)cc1C2` .
inactive

So what was the verdict on `COc1cc(-c2cc(-c3nc4ccc(F)cc4[nH]3)[nH]n2)cc(OC)c1OC` in this test?
inactive

Assay result, entry `N#C/C(=C\c1ccc(-c2ccc(Br)cc2)o1)c1nc(-c2cccs2)cs1` — outcome?
inactive

Please let me know the test result on file for CCCCC/C(=C\c1ccccc1)C1OC(C)C(C)O1 (stereo not given) .
inactive

State the result this test recorded for `NS(=O)(=O)c1ccc(CCNC(=O)/C=C/c2ccc(Cl)cc2)cc1` .
inactive

Hello, I am checking results. What call was entered for `C[Si](C)(C)Cc1ccccc1` ?
inactive

What is the recorded call for this compound in the test? CC(c1ccccc1)N1C(=O)C(C2SC(=S)N(C(C)c3ccccc3)C2=O)SC1=S (stereo not given)
inactive

What did the test return for `OCCNc1nc(Nc2ccc(Cl)c(Cl)c2)nc2ccccc12` ?
inactive

Hi, do you know how `C=C1CC[C@@H](C(=O)OC)Cc2nc(C)ccc21` came out in this test?
inactive

Query: recorded result category for `COc1cccc(-c2nn(-c3ccccc3)cc2-c2ccnc(NCCCNS(=O)(=O)c3ccccc3)c2)c1` in this test
inactive

For `COc1cc2[nH]c(C(=O)c3cc(OC)c(OC)c(OC)c3)c(N)c2cc1C#CCO` , what call appears in the results of this test?
active

Record lookup: outcome of this test for `CC/C=C\C[C@H]1CC=C2C(=O)C=C[C@@H]2CC=CCCCC(=O)O[C@@H](CCCCC)CC=C2C(=O)C=C[C@@H]2CC=CCCCC(=O)O[C@@H](CCCCC)CC=C2C(=O)C=C[C@@H]2CC=CCCCC(=O)O[C@@H](CCCCC)CC=C2C(=O)C=C[C@@H]2CC=CCCCC(=O)O1` ?
active

Which outcome did this test record for the compound `O=C1OC(c2ccc(Cl)c(Cl)c2)=C/C1=C/c1cccc([N+](=O)[O-])c1` ?
inactive

Recorded test outcome, item `COc1ccc(-c2n[nH]nc2-c2cc3ccccc3s2)cc1O`
inactive

Give the logged outcome of this assay for the following compound: `CN1CCN(c2ccc3nc(-c4[nH]ncc4Nc4ncnc5[nH]ccc45)[nH]c3c2)CC1`
active
